// values below are reported pIC50
target.under.test: UniProt:P51617
assay.procedure: RBC HotSpot Kinase Assay, IRAK1
protocol.conditions: isolated kinase enzyme, 33P-ATP, P81 filter-binding
The value called pIC50 is obtained by taking minus log10 of the concentration in mol/L.

Some entries whose results are on file:
> print(dat)
                                   compound  quantity.name  measured.value
1  COc1cc2ncc(-c3ccnc(N[C@H]4CNC[C@@H]4F)n3)n2nc1C12CC(C1)C2 [Compound 89a]          pIC50            7.36
2  COc1cc2ncc(-c3nc(N[C@@H]4CCCNC4)ncc3F)n2nc1C1CC(F)(F)C1 [Compound 51a]          pIC50            8.52
3  CC(O)(c1ccc2ncc(-c3nc(N[C@H]4CNC[C@@H]4F)ncc3F)n2c1)C(F)(F)F (single isomer, unassigned) [Compound 36a]          pIC50            8.40
4  F[C@H]1CNC[C@@H]1Nc1nccc(-c2cnc3cc(OC4CC4)c(C4CC4)nn23)n1 [Compound 10a]          pIC50            7.59
5  COc1cc2ncc(-c3ccnc(N[C@H]4CNC[C@@H]4F)n3)n2nc1C1CCC1 [Compound 77a]          pIC50            7.92

Let us move to another entry and its pIC50.
Requested field: pIC50. Item: COc1cc2ncc(-c3ccnc(N[C@H]4CNCC[C@@H]4F)n3)n2nc1N1CC(F)(F)C1 [Compound 18a]
6.65

---

System: MOLM14 D835Y cells
assay.procedure: MOLM14 D835Y cell viability assay (Cell Titer Glo)
Format: cell-based
protocol.conditions: Homo sapiens, MOLM-14, 48 h, cell viability, Cell Titer Glo, 48 hours; read-out: MOLM14 D835Y IC50
Overview of reported pIC50 across a group of compounds:
pIC50 is a log-scale quantity: -log10 of the concentration expressed in molar.

Some solved entries appear below for comparison.
> print(dat)
                                   compound  quantity.name  measured.value
1  COc1cc2ncc(-c3nc(N[C@@H]4CCCNC4)ncc3F)n2nc1C1CC2(CCC2)C1 [Compound 59a]          pIC50            8.15
2  CC(C)(O)c1ccc2ncc(-c3nc(N[C@H]4CNC[C@@H]4F)ncc3F)n2c1 [Compound 47a]          pIC50            7.34
3  COc1cc2ncc(-c3ccnc(N[C@@H]4CCCNC4)n3)n2nc1C12CC(C1)C2 [Compound 90a]          pIC50            7.30
4  COc1cc2ncc(-c3ccnc(N[C@@H]4CCCNC4)n3)n2nc1C1CCCC1 [Compound 84a]          pIC50            7.85
5  CC(C)(O)c1cn2c(-c3nc(N[C@H]4CNCC[C@@H]4F)ncc3F)cnc2cn1 [Compound 100a]          pIC50            7.05
6  FC(F)COc1cc2ncc(-c3cncc(N[C@@H]4CCCNC4)n3)n2nc1C1CC1          pIC50            7.39

Quick one: pIC50 for F[C@H]1CNC[C@@H]1Nc1nccc(-c2cnc3cc(OC4CC4)c(C4CC4)nn23)n1 [Compound 10a] ?
7.04

Similarly, COc1cc2ncc(-c3nc(N[C@H]4CNC[C@@H]4F)ncc3Cl)n2nc1C1CC1 [Compound 101a] ?
6.95

---

target.under.test: IRAK1 (Homo sapiens, UniProt P51617)
Sequence (P51617 whole entry): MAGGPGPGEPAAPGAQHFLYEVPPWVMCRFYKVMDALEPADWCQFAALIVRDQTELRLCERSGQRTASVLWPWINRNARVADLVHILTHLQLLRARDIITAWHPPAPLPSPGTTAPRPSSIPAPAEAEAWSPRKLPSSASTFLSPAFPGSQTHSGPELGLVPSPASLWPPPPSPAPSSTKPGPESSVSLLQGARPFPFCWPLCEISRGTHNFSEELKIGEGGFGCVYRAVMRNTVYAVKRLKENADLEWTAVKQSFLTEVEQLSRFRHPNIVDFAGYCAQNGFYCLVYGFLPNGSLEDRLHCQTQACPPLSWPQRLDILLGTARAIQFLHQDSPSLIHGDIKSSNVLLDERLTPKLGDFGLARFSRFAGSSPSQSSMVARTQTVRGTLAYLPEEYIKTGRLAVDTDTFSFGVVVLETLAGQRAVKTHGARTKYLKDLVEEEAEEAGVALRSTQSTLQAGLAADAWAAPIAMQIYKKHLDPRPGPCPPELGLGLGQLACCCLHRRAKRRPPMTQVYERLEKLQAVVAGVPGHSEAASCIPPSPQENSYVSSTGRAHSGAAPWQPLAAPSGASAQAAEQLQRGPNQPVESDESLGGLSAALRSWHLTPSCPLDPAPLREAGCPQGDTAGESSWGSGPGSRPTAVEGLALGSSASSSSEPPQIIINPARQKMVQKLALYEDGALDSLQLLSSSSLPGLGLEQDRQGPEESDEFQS
assay.procedure: RBC HotSpot Kinase Assay, IRAK1
protocol.conditions: isolated kinase enzyme, 33P-ATP, P81 filter-binding
quantity.name: pIC50
Scale note: pIC50 = -log10(concentration in M).

> print(dat)
                                   compound  quantity.name  measured.value
1  COc1cc2ncc(-c3nc(N[C@@H]4CCCNC4)ncc3F)n2nc1C1CCCC1 [Compound 62a]          pIC50            9.22
2  COc1cc2ncc(-c3nc(N[C@@H]4CCCNC4)ncc3F)n2nc1C1CC2(CCC2)C1 [Compound 59a]          pIC50            9.15
3  FC(F)COc1cc2ncc(-c3cncc(N[C@@H]4CCCNC4)n3)n2nc1C1CC1 [Compound 9a]          pIC50            6.70
4  COc1cc2ncc(-c3nc(N[C@@H]4CCCNC4)ncc3F)n2nc1C1CC(C)(C)C1 [Compound 56a]          pIC50            9.15
5  c1cc(-c2cnc3cc(OC4CC4)c(C4CC4)nn23)nc(N[C@@H]2CCCNC2)n1 [Compound 11a]          pIC50            7.28

Please examine the following record next.
Endpoint output: pIC50 of COc1cc2ncc(-c3cncc(N[C@@H]4CCCNC4)n3)n2nc1C1CC(F)(F)C1 [Compound 72a] . Value?
6.90

---

target.under.test: IRAK1 (Homo sapiens, UniProt P51617)
assay.procedure: RBC HotSpot Kinase Assay, IRAK1
protocol.conditions: isolated kinase enzyme, 33P-ATP, P81 filter-binding
Note to self: use condition met only for IC50 readings below 8 nM; a reading exactly at 8 nM still gets condition not met.

Example entries and their recorded answers appear below.
> print(dat)
                                   molecule     classification
1  COc1cc2ncc(-c3nc(N[C@H]4CNC[C@@H]4F)ncc3F)n2nc1C1CC2(CCC2)C1 [Compound 58a]      condition met
2  COc1cc2ncc(-c3ccnc(N[C@@H]4CCCNC4)n3)n2nc1C1CC(F)(F)C1 [Compound 21a]  condition not met
3  COc1cc2ncc(-c3ccnc(N[C@@H]4CCCNC4)n3)n2nc1N1CC(F)(F)C1 [Compound 17a]  condition not met
4  COc1cc2ncc(-c3ccnc(N[C@H]4CNCC[C@@H]4F)n3)n2nc1C1CC(F)(F)C1 [Compound 19a]  condition not met
5  CC(O)(c1ccc2ncc(-c3nc(N[C@@H]4CCCNC4)ncc3F)n2c1)C(F)(F)F (single isomer, unassigned) [Compound 37a]      condition met

Please check: IC50 for CC(O)(c1ccc2ncc(-c3nc(N[C@H]4CNCC[C@@H]4F)ncc3F)n2c1)C(F)(F)F (single isomer, unassigned) [Compound 35a] , strictly under 8 nM or not?
condition met

// query: CC(C)(O)c1ccc2ncc(-c3nc(N[C@H]4CNCC[C@@H]4F)ncc3F)n2c1 [Compound 46a]
condition met

Consider next the molecule COc1cc2ncc(-c3ccnc(N[C@H]4CNC[C@@H]4F)n3)n2nc1C(C)(C)O [Compound 41a] in the same way.
condition not met

// next record CC(O)(c1ccc2ncc(-c3ccnc(N[C@H]4CNC[C@@H]4F)n3)n2c1)C(F)(F)F (single isomer, unassigned) [Compound 24a]
condition not met

Please do the same for COc1cc2ncc(-c3nc(N[C@@H]4CCCNC4)ncc3F)n2nc1C1CC1 [Compound 3a] as well.
condition met

Now try CC(O)(c1ccc2ncc(-c3nc(N[C@@H]4CCCNC4)ncc3F)n2c1)C(F)(F)F (single isomer, unassigned) [Compound 39a] .
condition met

Now consider CC(C)(O)c1cn2c(-c3nc(N[C@H]4CNCC[C@@H]4F)ncc3F)cnc2cn1 [Compound 100a] and answer again.
condition not met

Next molecule: COc1cnc(N[C@H]2CNC[C@@H]2F)nc1-c1cnc2cc(OC)c(C3CC3)nn12 [Compound 104a]
condition not met

COc1cc2ncc(-c3nc(N[C@@H]4CCCNC4)ncc3F)n2nc1N1CCS(=O)(=O)CC1 [Compound 124a] ?
condition not met

---

Test system: MOLM14 F691L cells
assay.procedure: MOLM14 F691L cell viability assay (Cell Titer Glo)
Assay type: cell-based
protocol.conditions: Homo sapiens, MOLM-14; cell viability, Cell Titer Glo, 48 hours; read-out: MOLM14 F691L IC50
So basically, if IC50 comes in under 100 nM it's TRUE, and if it's 100 nM or more it's FALSE.

Some solved cases for reference:
> print(dat)
                                   compound  classification
1  Fc1cnc(N[C@@H]2CCCNC2)nc1-c1cnc2cnc(C3COC3)cn12 [Compound 118a]           FALSE
2  FC(F)COc1cc2ncc(-c3ccnc(N[C@H]4CNCC[C@@H]4F)n3)n2nc1C1CC1            TRUE
3  CC(C)(O)c1cn2c(-c3nc(N[C@H]4CNCC[C@@H]4F)ncc3F)cnc2cn1 [Compound 100a]           FALSE

Please check: IC50 for COc1cc2ncc(-c3ccnc(N[C@H]4CNC[C@@H]4F)n3)n2nc1C1CCCCC1 [Compound 86a] , strictly under 100 nM or not?
FALSE

Same lookup for COc1cc2ncc(-c3ccnc(N[C@H]4CNCC[C@@H]4F)n3)n2nc1C1CCO1 (stereo partly shown) [Compound 109a] , please.
FALSE

# repeat for COc1cc2ncc(-c3ccnc(N[C@H]4CNCC[C@@H]4F)n3)n2nc1C1CC(C)(C)C1 [Compound 82a]
FALSE

Same question, Fc1cnc(N[C@H]2CNCC[C@@H]2F)nc1-c1cnc2cnc(C3COC3)cn12 [Compound 117a] this time
FALSE
